# assayOverview: RCMB18 cell growth, single agent and combined, cisplatin and BGB IC40 combos (AID 1671462);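 note: cells exposed to compound for four days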
# measurementConditions: RCMB18 medulloblastoma cells, single agent, at 5 µM, stronger effect = higher value
Assign MET whenever inhibition does not fall below -10%; assign NOT MET whenever it does.

compound | category
NC(=O)c1cccc2cn(-c3ccc(C4CCCNC4)cc3)nc12 (stereo not drawn) | NOT MET
COc1ccc(-c2nc(-c3cc(C(F)(F)F)cc(C(F)(F)F)c3)n(Cc3ccc(C(N)=O)cc3)c2-c2ccc(OC)cc2)cc1 | NOT MET
C=C(NC(=O)C(=C)NC(=O)c1csc(C2=NC3c4csc(n4)C4NC(=O)c5csc(n5)C(C(C)(O)C(C)O)NC(=O)C5CSC(=N5)/C(=C/C)NC(=O)C(C(C)O)NC(=O)c5csc(n5)C3(CC2)NC(=O)C(C)NC(=O)C(=C)NC(=O)C(C)NC(=O)C(C(C)CC)NC2C=Cc3c(C(C)O)cc(nc3C2O)C(=O)OC4C)n1)C(N)=O (stereo not drawn) | MET
CC(=O)C1(O)Cc2c(O)c3c(c(O)c2C(OC2CC(N)C(O)C(C)O2)C1)C(=O)c1ccccc1C3=O (stereo not drawn) | MET
Nc1ccn(C2CCC(CO)O2)c(=O)n1 (stereo not drawn) | NOT MET
C=C1C(=O)O[C@@H]2C=C(C)CCC=C(C)CC[C@@H]12 | MET
CC1OC(n2cc(F)c(=O)[nH]c2=O)C(O)C1O (stereo not drawn) | NOT MET
CO[C@H]1/C=C/O[C@@]2(C)Oc3c(C)c(O)c4c(O)c(c5c(c4c3C2=O)=NC2(CCN(CC(C)C)CC2)N=5)NC(=O)/C(C)=C\C=C\[C@H](C)[C@H](O)[C@@H](C)[C@@H](O)[C@@H](C)[C@H](OC(C)=O)[C@@H]1C | MET
C=C1CCC(O)CC1=CC=C1CCCC2(C)C1CCC2C(C)C=CC(C)C(C)C (stereo not drawn) | NOT MET
Cc1cc(C)c(Nc2ccnc(Nc3ccc(C#N)cc3)n2)c(C)c1 | MET
Cc1cc(C#N)cc(C)c1Oc1nc(Nc2ccc(C#N)cc2)nc(N)c1Br | NOT MET
Cc1cc(C=CC#N)cc(C)c1Nc1ccnc(Nc2ccc(C#N)cc2)n1 | NOT MET
Cn1cc(-c2cnn3c(N)c(Br)c([C@H]4CCCNC4)nc23)cn1 | MET
